Source: paper PMC9037807

Documented pIC50 across a set of compounds
Target protein (sequence): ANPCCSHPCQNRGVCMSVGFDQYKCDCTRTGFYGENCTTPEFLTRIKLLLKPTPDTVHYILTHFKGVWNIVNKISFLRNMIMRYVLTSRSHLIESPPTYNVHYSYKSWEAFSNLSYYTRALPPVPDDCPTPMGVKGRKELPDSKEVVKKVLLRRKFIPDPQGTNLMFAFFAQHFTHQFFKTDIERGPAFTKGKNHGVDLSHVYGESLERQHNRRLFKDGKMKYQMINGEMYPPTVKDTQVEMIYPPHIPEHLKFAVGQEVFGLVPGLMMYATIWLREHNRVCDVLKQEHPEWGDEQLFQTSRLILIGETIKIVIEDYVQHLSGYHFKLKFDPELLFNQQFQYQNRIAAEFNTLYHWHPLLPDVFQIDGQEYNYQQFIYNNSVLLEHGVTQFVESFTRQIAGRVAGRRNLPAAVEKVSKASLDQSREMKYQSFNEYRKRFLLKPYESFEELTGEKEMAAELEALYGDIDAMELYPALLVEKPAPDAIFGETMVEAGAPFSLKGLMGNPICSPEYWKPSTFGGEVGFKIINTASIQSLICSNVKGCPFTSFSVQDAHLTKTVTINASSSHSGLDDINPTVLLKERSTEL
pIC50: −log10 of the molar value.
quantity.name: pIC50

[
  {
    "compound": "Cc1ccc2c(c1)nc(-c1ccc(S(C)(=O)=O)cc1)n2CC(=O)N/N=C/c1ccc(Cl)cc1 [11j]",
    "quantity.name": "pIC50",
    "observed": 6.96
  },
  {
    "compound": "COc1ccc(/C=N/NC(=O)Cn2c(-c3ccc(S(C)(=O)=O)cc3)nc3cc(C)ccc32)cc1 [11k]",
    "quantity.name": "pIC50",
    "observed": 7.00
  },
  {
    "compound": "C/C(=N\\NC(=O)Cn1c(-c2ccc(S(C)(=O)=O)cc2)nc2ccccc21)c1ccc(Cl)cc1 [12b]",
    "quantity.name": "pIC50",
    "observed": 7.00
  },
  {
    "compound": "COc1ccc(/C=N/NC(=O)Cn2c(-c3ccc(S(C)(=O)=O)cc3)nc3ccccc32)cc1 [11c]",
    "quantity.name": "pIC50",
    "observed": 6.96
  },
  {
    "compound": "C/C(=N\\NC(=O)Cn1c(-c2ccc(S(C)(=O)=O)cc2)nc2ccccc21)c1ccccc1 [12a]",
    "quantity.name": "pIC50",
    "observed": 6.55
  },
  {
    "compound": "COc1ccc(/C=N/NC(=O)Cn2c(-c3ccc(S(C)(=O)=O)cc3)nc3cc(Cl)ccc32)cc1 [11g]",
    "quantity.name": "pIC50",
    "observed": 6.89
  },
  {
    "compound": "C/C(=N\\NC(=O)Cn1c(-c2ccc(S(C)(=O)=O)cc2)nc2cc(C)ccc21)c1ccc(Cl)cc1 [12f]",
    "quantity.name": "pIC50",
    "observed": 6.72
  },
  {
    "compound": "CS(=O)(=O)c1ccc(-c2nc3ccccc3n2CC(=O)N/N=C/c2ccc(Cl)cc2)cc1 [11b]",
    "quantity.name": "pIC50",
    "observed": 7.00
  },
  {
    "compound": "Cc1ccc2c(c1)nc(-c1ccc(S(C)(=O)=O)cc1)n2CC(=O)N/N=C/c1ccc(F)cc1 [11l]",
    "quantity.name": "pIC50",
    "observed": 6.47
  },
  {
    "compound": "CS(=O)(=O)c1ccc(-c2nc3ccccc3n2CC(=O)N/N=C/c2ccccc2)cc1 [11a]",
    "quantity.name": "pIC50",
    "observed": 6.72
  }
]
